B1: HDV Ribozyme (parent)
chain: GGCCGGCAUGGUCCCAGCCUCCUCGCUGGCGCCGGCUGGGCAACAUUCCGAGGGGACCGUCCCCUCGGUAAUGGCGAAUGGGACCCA

# Variants of: B1
# ASSAY_TEXT: self-cleavage, relative activity (ratio to wild type); higher = more cleavage; co-transcriptional
self-cleavage listing for selected variants.
// response body must contain only the number

>>> print(df.to_string())
         mut  measured_number
0  G34C C36U           0.0332
1  C57U A71C            0.923
2  G39C A87C            0.323
3  A51U C84G            0.443
4  G10A U46C            0.397
5  G25C G73U            0.185

Complete the entry with self-cleavage for U23G C44A
0.0791

Complete the entry with self-cleavage for G10A G53A
0.841

Complete the entry with self-cleavage for U9C G54A
1.08

Complete the entry with self-cleavage for G38C G76C
0.122

Complete the entry with self-cleavage for G31C G53U
0.496

Complete the entry with self-cleavage for A8U G52A
0.692

Complete the entry with self-cleavage for G11U C63A
0.228

Complete the entry with self-cleavage for G11U G74A
0.114

Complete the entry with self-cleavage for A8G A77U
0.0978
